Test system: OVCAR-3 ovarian
Test summary: NCI-60 one-dose screen, 48 h
Condition set: 10 µM unless noted
Compounds without any hit were thinned out: in the full panel of roughly 83,000, 20% have a hit. The source made the active and inactive calls. Rule for the calls: active = growth percent below 10; inactive = the rest.
Parameter call: string, one of True for active, False for inactive

Please share the test call associated with COc1cccc2c1C=C1CCCCC3=Cc4c(OC)cccc4OC13O2 .
False

Per the records of this test, what outcome belongs to COc1ccc(C2NCCc3c2[nH]c2ccccc32)cc1CN1CCN(c2ccc(F)cc2)CC1 (stereo not given) ?
False

###

System: SF-539 CNS
Test summary: NCI-60 one-dose screen, 48 h
Condition set: 10 µM unless noted
About 83,000 compounds went through this panel and 20% of them were active in at least one assay; those are over-represented in the sample as a whole. Activity calls are given as the source filed them. The calls were made as follows: active = growth percent below 10; inactive = the rest.
API: response.call in active, inactive

COc1cccc(C2=NN3C(C2)c2ccccc2OC3c2ccc(/C=C3\SC(=O)NC3=O)cc2)c1 (centres undefined): inactive
Cc1ccc(C)c(-c2csc(Nc3ccc(C)c(C)c3)n2)c1: inactive
O=C(Nc1ccc(I)cc1F)c1cc(F)ccc1O: active

# ---- query compound ----
What call does the record list for CC[C@]1(O)C[C@@H]2CN(CCc3c([nH]c4ccccc34)[C@@](C(=O)OC)(c3cc4c(cc3OC)N(C)[C@H]3[C@@](O)(C(=O)OC)[C@H](OC(=O)CCCBr)[C@]5(CC)C=CCN6CC[C@]43[C@@H]65)C2)C1 ?
active
